- target: human ether-à-go-go-related gene (hERG) potassium channel (human, UniProt Q12809)
- Sequence (Q12809 whole entry, looked up): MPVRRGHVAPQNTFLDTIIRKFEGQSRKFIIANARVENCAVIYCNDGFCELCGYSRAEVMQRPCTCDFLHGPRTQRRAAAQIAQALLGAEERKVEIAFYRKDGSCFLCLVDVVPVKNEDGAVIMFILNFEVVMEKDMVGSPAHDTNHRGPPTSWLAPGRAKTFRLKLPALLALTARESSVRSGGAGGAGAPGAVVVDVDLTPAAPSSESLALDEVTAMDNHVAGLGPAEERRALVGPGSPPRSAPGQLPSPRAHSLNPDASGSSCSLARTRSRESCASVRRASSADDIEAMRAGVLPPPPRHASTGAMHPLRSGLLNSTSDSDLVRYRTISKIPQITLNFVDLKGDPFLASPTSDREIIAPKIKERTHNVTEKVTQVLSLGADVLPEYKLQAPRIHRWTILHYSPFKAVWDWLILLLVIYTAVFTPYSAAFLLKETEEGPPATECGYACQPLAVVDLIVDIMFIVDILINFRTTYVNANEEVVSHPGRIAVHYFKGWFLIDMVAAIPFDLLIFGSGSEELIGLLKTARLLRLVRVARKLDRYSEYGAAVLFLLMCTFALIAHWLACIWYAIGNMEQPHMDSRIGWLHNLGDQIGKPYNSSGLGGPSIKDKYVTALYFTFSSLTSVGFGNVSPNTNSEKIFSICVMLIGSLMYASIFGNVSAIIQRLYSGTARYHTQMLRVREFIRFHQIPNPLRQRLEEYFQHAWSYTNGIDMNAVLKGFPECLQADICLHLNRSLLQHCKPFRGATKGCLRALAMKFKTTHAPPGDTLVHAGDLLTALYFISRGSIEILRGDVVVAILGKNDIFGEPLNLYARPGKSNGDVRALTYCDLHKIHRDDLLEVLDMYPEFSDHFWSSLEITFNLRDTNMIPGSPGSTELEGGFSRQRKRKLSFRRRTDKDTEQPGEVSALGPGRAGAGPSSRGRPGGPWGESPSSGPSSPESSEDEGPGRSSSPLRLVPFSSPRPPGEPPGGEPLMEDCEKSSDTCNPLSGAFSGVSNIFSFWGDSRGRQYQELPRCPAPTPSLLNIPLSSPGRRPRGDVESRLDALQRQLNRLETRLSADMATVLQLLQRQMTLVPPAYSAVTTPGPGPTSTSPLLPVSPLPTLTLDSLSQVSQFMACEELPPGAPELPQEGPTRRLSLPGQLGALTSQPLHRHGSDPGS
- assay: primary screen, population patch clamp on CHO cells stably expressing hERG; higher = less effect of the substance
About 2,200 (0.71%) of roughly 310,000 compounds showed an effect of 50% or more. Effects have a minus sign here. Only a selection was taken, and strong results are over-represented in it overall.
Parameter threshold = 10%. Response is 1 when hERG current change (%, negative = inhibition) at 1uM meets or exceeds it, else -1.

molecule="COC(=O)c1ccc(C(=O)NC2CCCc3c2cnn3-c2ccc(C)c(C)c2)cc1 (centres unmarked)" target="human ether-à-go-go-related gene (hERG) potassium channel (human, UniProt Q12809)" group_label=1
molecule="CCOC(=O)C1=C(COC(=O)/C=C/c2cccc(Br)c2)NC(=O)NC1C (centres unmarked)" target="human ether-à-go-go-related gene (hERG) potassium channel (human, UniProt Q12809)" group_label=-1
molecule="CC(=O)N1CCC(C(=O)NC2CC(C)(C)Cc3c2cnn3-c2ccc(F)cc2)CC1 (centres unmarked)" target="human ether-à-go-go-related gene (hERG) potassium channel (human, UniProt Q12809)" group_label=-1
molecule="COc1ccc(CNC(=O)C2(CC3CC(c4ccccc4)=NO3)CCN(C(=O)Cc3ccc(F)cc3)CC2)cc1 (centres unmarked)" target="human ether-à-go-go-related gene (hERG) potassium channel (human, UniProt Q12809)" group_label=1
molecule="Cc1ccc(-n2ncc3c2CCCC3NC(=O)c2ccoc2)cc1C (centres unmarked)" target="human ether-à-go-go-related gene (hERG) potassium channel (human, UniProt Q12809)" group_label=-1
